System: TK-10 renal
assay: NCI-60 one-dose screen, 48 h
condition-description: 10 µM unless noted
Method: Growth inhibition of the TK-10 human tumor cell line is measured as a screen for anti-cancer activity. Cells are grown in 96 well plates and exposed to the test compound for 48 hours. Compounds are tested at a single concentration, which is 10^-5 M for most compounds. The reported endpoint is percent growth (GI% or GIPRCNT), where numbers from 0 - 100% represent growth inhibition, and numbers from -100% - 0 represent cell death. For example, a value of 40 represents 60% growth inhibition. […]
About 83,000 compounds went through this panel and 20% of them were active in at least one assay; those are over-represented in the sample as a whole. Activity calls are given as the source filed them. How the source made its calls: active means growth percent below 10; inactive means the rest.
Classes used: YES = active, NO = inactive

O=C(CCCCN1CCOCC1)Nc1ccc(Cn2nnc3c2C(=O)c2nnn(Cc4ccc(NC(=O)CCCCN5CCOCC5)cc4)c2C3=O)cc1	NO
O=C1C(Cl)=C(Cl)C(=O)c2c1nc1n2CCCC1	NO
COc1cc(OC)c(/C=C/C(=O)c2c(OC)cc(OC)cc2OC)c(OC)c1	NO
Cc1ccc(S(=O)(=O)n2cc(-c3csc(-c4cn(C)c5ncccc45)n3)c3ccccc32)cc1	NO
CN(CC(=O)N(Cc1ccc(C2CCCCC2)cc1)c1ccc(C(=O)NO)cc1)S(=O)(=O)c1c(F)c(F)c(F)c(F)c1F	NO
Cc1ccc2c(c1)C(=O)c1c-2c(OCCCN(C)C)nc2ccccc12	NO
O=c1[nH]c(-c2ccccn2)nc2sc3c(c12)CCCCC3	NO
O=S(=O)(NCCCNc1cc(-c2cn(-c3ccccc3)nc2-c2cccc(O)c2)ccn1)c1ccccc1	NO
CC/C(=C(\c1ccc(O)cc1)c1ccc(OCCN(C)CCN(C)C(=O)CCCCC(=O)c2c(C)[nH]c(/C=C3\N=C(c4ccc[nH]4)C=C3OC)c2C)cc1)c1ccccc1	NO
S=c1[nH]nc(CSc2ncnc3c2c(-c2ccccc2)cn3-c2ccc(Cl)cc2)o1	NO
Nc1cc(-c2nc3sccn3c2-c2ccnc(NCCCNS(=O)(=O)c3ccc(F)cc3)n2)ccc1F	NO
C=C1CC[C@@H]2[C@](C)(COC(C)=O)[C@H](OC(C)=O)CC[C@@]2(C)[C@@H]1CC(Nc1ccc(S(=O)(=O)Nc2ccc(Cl)nn2)cc1)C1=CCOC1=O (stereo partly drawn)	NO
CNc1nc(C)c(-c2nc(Nc3cccc(S(N)(=O)=O)c3)ncc2F)s1	YES
CC(C)(C)n1cc(-c2ccnc(NCCNS(=O)(=O)c3ccccc3)c2)c(-c2cccc(O)c2)n1	NO
Oc1c(Cl)cc(Cl)cc1CNc1nccnn1	NO
COc1ccc2c(c1)C(=O)/C(=C/c1cccc(OCC(=O)Nc3nc4c(s3)CCCC4)c1)O2	YES
O=C1Nc2ccccc2/C1=C/C(=N/c1nnc(-c2ccccc2)s1)c1ccccc1	YES
N#Cc1c(N)nc(N)nc1Nc1ccc(Br)cc1	NO

====

Property: growth; scope: individual molecules
System: SK-MEL-5 melanoma
assay: NCI-60 one-dose screen, 48 h (100 = growth as untreated, 0 = no growth, -100 = all killed)
condition-description: 10 µM unless noted
Compounds without any hit were thinned out: in the full panel of roughly 83,000, 20% have a hit. Calls of active or inactive are those of the source. How the source made its calls: active means growth percent below 10; inactive means the rest.
measured-property: growth

CCCCCCCCCCCCNC(=O)[C@H]1CSC(c2ccc(OC)c(F)c2)N1 (some centres undefined)	-98.1% (active)
CCCCCCCCCCCCCCCC[N+]1(CC)CCCC1	-83.6% (active)
CC(C)(C)n1cc(-c2ccnc(NCCCNS(=O)(=O)c3cccc4ccccc34)c2)c(-c2cccc(O)c2)n1	-20% (active)
C=C1CC[C@@H]2[C@](C)(COC(C)=O)[C@H](OC(C)=O)CC[C@@]2(C)[C@@H]1CC(Nc1ccc(S(=O)(=O)Nc2ccc(Cl)nn2)cc1)C1=CCOC1=O (some centres undefined)	35.8% (inactive)

====

Property: growth; scope: individual compounds
System: 786-0 renal
assay: NCI-60 one-dose screen, 48 h (100 = growth as untreated, 0 = no growth, -100 = all killed)
condition-description: 10 µM unless noted
About 83,000 compounds went through this panel and 20% of them were active in at least one assay; those are over-represented in the sample as a whole.
measured-property: growth (%)

NS(=O)(=O)N(c1cc(C(F)(F)F)cc(C(F)(F)F)c1)C1CCN(Cc2ccc(F)cc2)CC1	55.5
COc1cc(-c2cnc3nonc3n2)c(OC)c2c1OCO2	104
O=C(O)c1ccc(=O)[nH]n1	116
CCCCCCCCCCCCCC1=NCCN1CCO	68.8
Nc1cc(O)cc2cccnc12	105
Cc1nc2nc(N)nc(N)c2nc1C	98.4
N=c1c2ccccc2nc2n1CCCCC2	119
CCN(C(=O)CN1CCN(c2cc3c(cc2F)c(=O)c(C(=O)O)cn3CC)CC1)c1nc(-c2ccccc2)cs1	14.3
COc1cccc(-c2nc3sccn3c2-c2ccnc(NCCCNS(=O)(=O)c3ccc(Cl)cc3)c2)c1	58.4
O=c1c2cccc3c(Nc4ccccn4)ccc(c32)c2nc3ccccc3n12	88.4
O=C(O)c1ccc2c(c1Sc1ccccc1)C(=O)c1ccccc1C2=O	106

====

Test system: SR leukemia
assay: NCI-60 one-dose screen, 48 h
condition-description: 10 µM unless noted
Method: Growth inhibition of the SR human tumor cell line is measured as a screen for anti-cancer activity. Cells are grown in 96 well plates and exposed to the test compound for 48 hours. Compounds are tested at a single concentration, which is 10^-5 M for most compounds. The reported endpoint is percent growth (GI% or GIPRCNT), where numbers from 0 - 100% represent growth inhibition, and numbers from -100% - 0 represent cell death. For example, a value of 40 represents 60% growth inhibition. […]
About 83,000 compounds went through this panel and 20% of them were active in at least one assay; those are over-represented in the sample as a whole. Activity calls are given as the source filed them. How the source made its calls: active means growth percent below 10; inactive means the rest.
Classes used: True = active, False = inactive

CC(C)[C@H]1COC(=O)N1[C@@H]1C(=O)N([C@@H](CCC(=O)N2CCN(C3CCCC3)CC2)C(=O)N[C@@H]2CCCc3ccccc32)[C@@H]1/C=C/c1cccc(Br)c1	True
ClC1=C2NC=NC2n2c(nnc2-c2ccc(Cl)cc2)N1 (centres undefined)	False
COc1cc2c(=O)n(CC3CCCCC3)c3c4cc[nH]c4ncc3c2cc1OC	True
Nc1cc2nc3ccccc3sc-2cc1=O	True
Cc1cc(=O)oc2cc(Oc3nc(-c4ccc(Cl)cc4)cn4c(-c5ccc(Cl)cc5)cnc34)ccc12	False
CCCCCCCCCc1cc(CN2CCCCC2)c(O)c(CN2CCCCC2)c1	True
O=[N+]([O-])c1cccc(-c2nc3sccn3c2-c2ccnc(NCCCNS(=O)(=O)c3cccc(F)c3)n2)c1	False
Cn1cc(-c2nc(-c3c[nH]c4ccccc34)cs2)c2cccnc21	False
C=C(CN1CCN(c2cccc(C(F)(F)F)n2)CC1)c1ccc(C(=O)Nc2ccccc2N)cc1	True

====

System: MDA-MB-435 melanoma
assay: NCI-60 one-dose screen, 48 h (100 = growth as untreated, 0 = no growth, -100 = all killed)
condition-description: 10 µM unless noted
This is part of a sample that, as a whole, favours compounds with a hit. Of some 83,000 tested, about 20% had one in any assay.
measured-property: growth (%)

CC[n+]1ccc2c(c1)C(=O)c1nccc3c1c-2nc1ccccc13	4.27
COc1cc(C2CC(=O)c3c(C)nn(-c4nc5ccccc5[nH]4)c3C2)cc(OC)c1OC (stereo not drawn)	99.8
O=C(O)c1cccnc1Br	102
CC(=O)C1=C(O)C=C2Oc3c(C(=O)/C=C/c4cc(C(F)(F)F)cc(C(F)(F)F)c4)c(O)c(C)c(O)c3[C@]2(C)C1=O	-33.9
ClC1=C2NC=NC2n2c(nnc2-c2ccc(Cl)cc2)N1 (stereo not drawn)	99.9
Cc1nc2sc(C(=O)Nc3cccc4c3OCCO4)c(N)c2cc1C(C)O (stereo not drawn)	-39.2
O=C(NC(Cc1ccccc1)C(=O)CCl)OCc1ccccc1 (stereo not drawn)	16.1
O=C1Nc2ccccc2/C1=C/C(=N/c1nnc(-c2ccc(Cl)cc2)s1)c1ccccc1	41.7
O=S(=O)(Nc1ccc(Cl)cc1Cl)c1ccc(-c2cnc(C3CC3)o2)cc1	-5.62
Cc1ccc(NC(=O)c2sc3nc4c(cc3c2N)C(=O)CCC4)cc1C	-55.5
COc1cccc(/C=C2/C(=O)N(Cc3ccco3)SC2=S)c1OC	84.6
Cc1noc(C)c1-c1cc(O)cc(C(O)c2ccccc2)c1 (stereo not drawn)	43.9
Cc1cc(-c2nc3ccccc3s2)ccc1NC(=O)COc1ccc(Cl)cc1	113
COc1ccc(C(=O)/C=C/c2c[n+](=O)c3ccc(F)cc3n2[O-])cc1	119
O=c1cc(-c2ccccc2)[nH]c2ccccc12	-16.8
COc1cc(OC)c(/C=C/S(=O)(=O)Cc2ccc(OC)c(N)n2)c(OC)c1	2.24
CCN(CC)CCCNc1cccc2c(SCc3ccccc3)ccnc12	-27.9
CCOC(=O)CC(C)=N	113
COc1cccc(-c2nc3sccn3c2-c2ccnc(NCCCNS(=O)(=O)c3ccc(Cl)cc3)c2)c1	38.4
O=C(Nc1cccc2c1C(=O)c1cccc(Nc3cccc4c3C(=O)c3cccc(NC(=O)c5ccccc5)c3C4=O)c1C2=O)c1ccccc1	104
COc1ccc(-n2c(C)nc3c(c(C)nn3-c3ccccc3)c2=O)cc1	4.94
O=C1C[C@H](Sc2nc(-c3ccc(F)cc3)cc(C(F)(F)F)n2)[C@H]2CO[C@@H]1O2	102
O=C1c2cc3c(cc2-c2c1c1cc(F)c(F)cc1c(=O)n2C[C@H](O)CO)OCO3	-11
COc1ccc(S(=O)(=O)NCCCNc2nccc(-c3c(-c4cccc(N)c4)nc4sccn34)n2)cc1	70.2
O=C(CN1CCN(c2cc3c(cc2F)c(=O)c(C(=O)O)cn3C2CC2)CC1)Nc1nc(-c2ccc(Cl)cc2)cs1	25.2
O=c1c2c3c(sc2n2c(CCl)nnc2n1Cc1ccccc1)CCCC3	-64.5
CCN(CC)CC(O)c1cc(-c2ccc(Cl)cc2)nc2c(C)c(Cl)ccc12 (stereo not drawn)	-90
COc1ccc2nc3cc(Cl)ccc3c(NCCNCC(O)CO)c2c1 (stereo not drawn)	28.3
Cn1c2ccccc2c2c3c(c4c5ccccc5n(CCCCCC#N)c4c21)C(=O)N(O)C3=O	20.9
CC(=O)Nc1ccc2c(c1)c(NC(C)=O)nn2C(=O)Nc1ccc(Cc2ccccc2)cc1	82.2
CCCCNP1(NCCCC)=NP(NCCCC)(NCCCC)=NP(NCCCC)(NCCCC)=NP(NCCCC)(NCCCC)=N1	6.7
COC(=O)C12C3C(=O)N(c4ccc(OC)cc4)C(=O)C3C(c3cn(-c4ccccc4)nc3C)N1[C@H](c1cn(-c3ccccc3)nc1C)[C@@H]1C(=O)N(c3ccc(OC)cc3)C(=O)[C@@H]12 (stereo partly drawn)	102
Cc1cc(=O)oc2cc(Oc3nc(-c4ccc(Cl)cc4)cn4c(-c5ccc(Cl)cc5)cnc34)ccc12	75.5
CC/C=C\C[C@H](F)C/C=C1/C(=O)C=C[C@@H]1C/C=C\CCCC(=O)O	21.6
CC[C@]12C=CCN3CC[C@@]4(c5ccc(OC)cc5N(C)[C@H]4[C@@](O)(C(=O)OC)[C@@H]1OC(=O)CCC(=O)N[C@@H](Cc1c[nH]c4ccccc14)C(=O)OC)[C@@H]32	95.3
Nc1cc(-c2nc3sccn3c2-c2ccnc(NCCCNS(=O)(=O)c3ccc(F)cc3)n2)ccc1F	22.9
CNC(=S)N/N=C/CSC/C=N/NC(=S)NC	81.7
O=[N+]([O-])c1cccc(-c2nc3sccn3c2-c2ccnc(NCCNS(=O)(=O)c3ccc(C(F)(F)F)cc3)n2)c1	20.7
